The reader will find Ki measurements below, all made with hNTS2 (Homo sapiens).
Sequence (O95665 whole entry): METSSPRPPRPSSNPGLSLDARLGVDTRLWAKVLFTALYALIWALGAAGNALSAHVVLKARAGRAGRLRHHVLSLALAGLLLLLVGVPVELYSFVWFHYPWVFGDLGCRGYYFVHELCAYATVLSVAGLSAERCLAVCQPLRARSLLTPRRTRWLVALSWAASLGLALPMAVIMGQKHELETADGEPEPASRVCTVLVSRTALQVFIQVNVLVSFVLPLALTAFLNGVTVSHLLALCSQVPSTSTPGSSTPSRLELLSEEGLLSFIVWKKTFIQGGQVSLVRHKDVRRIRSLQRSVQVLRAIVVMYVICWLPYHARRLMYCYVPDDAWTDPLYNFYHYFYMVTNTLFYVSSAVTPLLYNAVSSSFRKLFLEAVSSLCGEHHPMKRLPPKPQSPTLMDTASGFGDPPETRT
Your answer should be a plain number; it is taken to be in nM.

Would you please look over these solved cases?
COc1cccc(OC)c1-c1cc(C(=O)NC2(C(=O)O)C3CC4CC(C3)CC2C4)nn1-c1ccc(-c2cn(CCCN(C)CCCNC(=O)CN3CCN(CC(=O)O)CCN(CC(=O)O)CCN(CC(=O)O)CC3)nn2)cc1C(C)C (stereo not shown)    100
COc1cccc(OC)c1-c1cc(C(=O)NC2(C(=O)O)C3CC4CC(C3)CC2C4)nn1-c1ccc(-c2cn(CCCN(C)C[C@@H](O)CNC(=O)CN3CCN(CC(=O)[O-])CCN(CC(=O)[O-])CCN(CC(=O)[O-])CC3)nn2)cc1C(C)C.[Lu+3] (stereo partly shown)    27
COc1cccc(OC)c1-c1cc(C(=O)NC2(C(=O)O)C3CC4CC(C3)CC2C4)nn1-c1ccc(-c2cn(CCCN(C)C[C@@H](O)CNC(=O)CN3CCN(CC(=O)O)CCN(CC(=O)O)CCN(CC(=O)O)CC3)nn2)cc1C(C)C (stereo partly shown)    59

Task item: Under hNTS2 (Homo sapiens): Ki value of COc1cccc(OC)c1-c1cc(C(=O)NC2(C(=O)O)C3CC4CC(C3)CC2C4)nn1-c1ccc(-c2cn(CCCN(C)CCCNC(=O)CN3CCN(CC(=O)[O-])CCN(CC(=O)[O-])CCN(CC(=O)[O-])CC3)nn2)cc1C(C)C.[Lu+3] (stereo not shown) ?
Reply: 13
